measured-target: UniProt:Q9P2J5
Sequence (Q9P2J5 whole entry, looked up): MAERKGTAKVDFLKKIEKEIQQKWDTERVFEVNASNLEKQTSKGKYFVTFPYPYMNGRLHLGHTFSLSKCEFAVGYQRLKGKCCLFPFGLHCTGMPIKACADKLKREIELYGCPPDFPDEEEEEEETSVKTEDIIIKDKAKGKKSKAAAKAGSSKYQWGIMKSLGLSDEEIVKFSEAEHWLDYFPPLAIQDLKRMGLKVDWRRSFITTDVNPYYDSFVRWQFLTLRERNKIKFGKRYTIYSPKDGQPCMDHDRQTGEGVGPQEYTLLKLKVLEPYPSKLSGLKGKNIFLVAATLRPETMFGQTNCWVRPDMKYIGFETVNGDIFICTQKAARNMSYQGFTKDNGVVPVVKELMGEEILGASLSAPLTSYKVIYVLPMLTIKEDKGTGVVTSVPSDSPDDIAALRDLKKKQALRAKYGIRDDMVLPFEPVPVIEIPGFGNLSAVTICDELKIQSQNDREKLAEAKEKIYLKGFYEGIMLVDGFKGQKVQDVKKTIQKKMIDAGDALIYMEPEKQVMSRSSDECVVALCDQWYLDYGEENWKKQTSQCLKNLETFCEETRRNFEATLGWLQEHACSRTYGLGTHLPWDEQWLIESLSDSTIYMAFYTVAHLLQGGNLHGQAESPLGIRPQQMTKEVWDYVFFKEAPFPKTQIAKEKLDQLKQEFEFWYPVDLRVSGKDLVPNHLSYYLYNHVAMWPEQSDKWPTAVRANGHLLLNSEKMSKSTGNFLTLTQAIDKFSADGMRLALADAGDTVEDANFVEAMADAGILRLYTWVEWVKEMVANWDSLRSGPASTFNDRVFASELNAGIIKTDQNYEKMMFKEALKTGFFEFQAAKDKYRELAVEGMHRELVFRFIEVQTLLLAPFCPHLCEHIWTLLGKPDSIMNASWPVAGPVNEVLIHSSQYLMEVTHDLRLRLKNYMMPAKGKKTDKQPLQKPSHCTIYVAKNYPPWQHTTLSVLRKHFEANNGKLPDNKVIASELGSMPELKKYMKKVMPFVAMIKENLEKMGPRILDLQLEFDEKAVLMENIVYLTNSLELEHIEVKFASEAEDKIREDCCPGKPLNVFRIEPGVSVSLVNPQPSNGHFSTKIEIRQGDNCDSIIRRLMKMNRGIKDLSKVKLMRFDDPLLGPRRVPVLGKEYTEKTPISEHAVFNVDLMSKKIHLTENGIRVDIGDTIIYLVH
assay-procedure: Inhibition of Leucyl-tRNA synthetase-mediated mTORC1 signaling activation in human HEK293 cells assessed as reduction in leucine-induced S6K phosphorylation at 200 uM preincubated for 50 mins followed by leucine-stimulation and measured after 10 mins by Western blot analysis
Type: cell-based
Active and inactive are the calls of the source. No cut-off for these calls is given here.
Reply using exactly one outcome from t = active, f = inactive

Completed entries (count: 3):
>  <mol>
Nc1ncnc2c1ncn2[C@@H]1O[C@H](COS(=O)(=O)NC(=O)[C@@H](O)[C@H](O)C2CC2)[C@@H](O)[C@@H]1O

>  <qualitative-label>
t

$$$$
>  <mol>
CC(C)C[C@H](O)C(=O)NS(=O)(=O)OC[C@H]1O[C@@H](n2cnc3c(N)ncnc32)[C@@H](O)[C@@H]1O

>  <qualitative-label>
t

$$$$
>  <mol>
CC(C)c1cc(C(=O)NS(=O)(=O)OC[C@H]2O[C@@H](n3cnc4c(N)nc(I)nc43)[C@H](O)[C@@H]2O)[nH]n1

>  <qualitative-label>
f

$$$$

Exercise: Dear colleague, could you share the recorded outcome for CNc1ncnc2c1ncn2[C@@H]1O[C@H](COS(=O)(=O)NC(=O)[C@@H](Cl)CC(C)C)[C@@H](O)[C@H]1O when you have a moment?
Key: f

Exercise: Dear colleague, could you share the recorded outcome for CO[C@H](C(=O)NS(=O)(=O)OC[C@H]1O[C@@H](n2cnc3c(N)nc(Cl)nc32)[C@H](O)[C@@H]1O)[C@H](OC)C(C)C when you have a moment?
Key: t

Exercise: Dear colleague, could you share the recorded outcome for CC(C)[C@H](O)[C@@H](O)C(=O)NS(=O)(=O)OC[C@H]1O[C@@H](n2cnc3c(N)ncnc32)[C@H](O)[C@@H]1O when you have a moment?
Key: f

Exercise: Dear colleague, could you share the recorded outcome for CC(C)C[C@H](N)CO when you have a moment?
Key: t

Exercise: Dear colleague, could you share the recorded outcome for CC(C)C[C@@H](O)C(=O)NS(=O)(=O)OC[C@H]1O[C@@H](n2cnc3c(N)ncnc32)[C@H](O)[C@@H]1O when you have a moment?
Key: t

Exercise: Dear colleague, could you share the recorded outcome for CC(C)[C@@H](O)[C@H](O)C(=O)NS(=O)(=O)OC[C@H]1O[C@@H](n2cnc3c(N)ncnc32)[C@@H](O)[C@@H]1O when you have a moment?
Key: f

Exercise: Dear colleague, could you share the recorded outcome for Nc1nc(I)nc2c1ncn2[C@@H]1O[C@H](COS(=O)(=O)NC(=O)[C@@H](O)[C@H](O)C2CC2)[C@@H](O)[C@H]1O when you have a moment?
Key: t

Exercise: Dear colleague, could you share the recorded outcome for CC(C)C[C@H](Cl)C(=O)NS(=O)(=O)OC[C@H]1O[C@@H](n2cnc3c(N)nc(Cl)nc32)[C@H](O)[C@@H]1O when you have a moment?
Key: t

Exercise: Dear colleague, could you share the recorded outcome for CC(C)C[C@H](O)C(=O)NS(=O)(=O)OC[C@H]1O[C@@H](n2cnc3c(=O)[nH]cnc32)[C@H](O)[C@@H]1O when you have a moment?
Key: t

Exercise: Dear colleague, could you share the recorded outcome for CO[C@H](C(=O)NS(=O)(=O)OC[C@H]1O[C@@H](n2cnc3c(N)ncnc32)C[C@@H]1O)[C@H](OC)C(C)C when you have a moment?
Key: f

Exercise: Dear colleague, could you share the recorded outcome for CC(C)[C@@H](O)[C@H](O)C(=O)NS(=O)(=O)OC[C@H]1O[C@@H](n2cnc3c(N)nc(I)nc32)[C@H](O)[C@@H]1O when you have a moment?
Key: t

Exercise: Dear colleague, could you share the recorded outcome for CC(C)[C@H](O)[C@@H](O)C(=O)NS(=O)(=O)OC[C@H]1O[C@@H](n2cnc3c(N)ncnc32)C[C@@H]1O when you have a moment?
Key: f

Exercise: Dear colleague, could you share the recorded outcome for Nc1ncnc2c1ncn2[C@@H]1O[C@H](COS(=O)(=O)NC(=O)[C@@H](O)[C@H](O)C2CC2)[C@H]2NC(=O)O[C@H]21 when you have a moment?
Key: t

Exercise: Dear colleague, could you share the recorded outcome for CO[C@H](C(=O)NS(=O)(=O)OC[C@H]1O[C@@H](n2cnc3c(N)nc(Cl)nc32)[C@H](O)[C@@H]1O)[C@H](O)C(C)C when you have a moment?
Key: f

Exercise: Dear colleague, could you share the recorded outcome for CC(C)[C@@H](O)[C@H](O)C(=O)NS(=O)(=O)OC[C@@H]1C[C@@H](O)[C@H](n2cnc3c(N)ncnc32)O1 when you have a moment?
Key: f

Exercise: Dear colleague, could you share the recorded outcome for CC(C)C[C@@H](O)C(=O)NS(=O)(=O)OC[C@H]1O[C@@H](n2cnc3c(=O)[nH]cnc32)[C@H](O)[C@@H]1O when you have a moment?
Key: f

Exercise: Dear colleague, could you share the recorded outcome for CC(C)[C@@H](O)[C@H](O)C(=O)NS(=O)(=O)OC[C@H]1O[C@@H](n2cnc3c(=O)[nH]cnc32)[C@H](O)[C@@H]1O when you have a moment?
Key: t

Exercise: Dear colleague, could you share the recorded outcome for CN[C@@H](CC(C)C)C(=O)NS(=O)(=O)OC[C@H]1O[C@@H](n2cnc3c(N)ncnc32)[C@H](O)[C@@H]1O when you have a moment?
Key: f

Exercise: Dear colleague, could you share the recorded outcome for CC(C)(C)c1cc(C(=O)NS(=O)(=O)OC[C@H]2O[C@@H](n3cnc4c(N)ncnc43)[C@H](O)[C@@H]2O)[nH]n1 when you have a moment?
Key: t

Exercise: Dear colleague, could you share the recorded outcome for CC(C)C[C@H](O)C(=O)NS(=O)(=O)OC[C@H]1O[C@@H](n2cnc3c(N)nc(Cl)nc32)[C@H](O)[C@@H]1O when you have a moment?
Key: f

Taken from ChEMBL document CHEMBL4368933.
